Item-by-item account of Δheme binding: percent change in Δ peak absorbance at 405 nm and 368 nm
Target: T1, GST-tagged IsdA (Staphylococcus aureus, UniProt A5IS16 47-316)
T1 sequence: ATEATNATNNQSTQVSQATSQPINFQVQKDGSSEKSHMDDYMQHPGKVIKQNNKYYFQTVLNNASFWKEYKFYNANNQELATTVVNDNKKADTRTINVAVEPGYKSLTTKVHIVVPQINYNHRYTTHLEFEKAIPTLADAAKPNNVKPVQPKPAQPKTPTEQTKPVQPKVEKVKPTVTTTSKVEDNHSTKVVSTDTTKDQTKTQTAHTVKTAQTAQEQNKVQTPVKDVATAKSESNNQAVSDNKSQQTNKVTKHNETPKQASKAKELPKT
Assay: cell-based or functional assay
Measurement Type: Δheme binding: percent change in Δ peak absorbance at 405 nm and 368 nm (%)

>>> value_reported("MAb 7D4 (antibody, V domains shown) VH: EVQLQESGPELVKPGTSVWISCKTSGFTFTKYTMHWVKQSHGKTLEWIGGIDPNNGDTSYNQKFKDKATLTVDKSSSTAYMELRSLTSEDSAVFFCVRLEGSLPLDYWGQGTTLTVSS VL: DVGMTQTPLSLPVSLGDQASISCGSSQSLLHSNGKTYLHWYLQKPGQSPKLLIYKVSNRFSGVPDRFSGSGSGTYFTLKITRVEAEDLGVYFCSQTTHVPFTFGSGTKLEIK")
-0.6
>>> value_reported("MAb 7E9 (antibody, V domains shown) VH: DVQLQESGPGLVKPSQSLSLTCSVTGHSITSGYYWNWIRQFPGNKLEWMGYISFDGRNKYNPSLKNRISITRDTSKNQFFLKLNSVTSEDTATYFCTRLSYSTLDYWGQGTSVTVSS VL: DVVMTQTPLSLPVSLGDQASISCRSSQSLLYSNGNTYLHWYLQKPGQSPKLLIYKVSNRFSGVPDRFSASGSGTDFTLKISRVEAEDLGVYFCSQSTHVPLTFGAGTKLELK")
35
>>> value_reported("MAb 5H8 (antibody, V domains shown, also called 5H8.9) VH: GLTGEPGTSVKMSCRTSGYTFTEYTMHWVKQSHEKRLEWIGGIDPSNGDTSYNQKFKGKATLTVDKSSSSAYMDLRSLTSVDSAIYYCARLEGVLPLDYWGHGTTLTVSS VL: DIVMTQSQKFMSTSVRDRVAVTCKASQNVGTNVAWYQQKPGQSPKALIYSASYRYSGVPDRFTGSGSGTDFTLTISNVQSEDLAEYFCQQYNSYPYTFGGGTKLEVK")
0.5
>>> value_reported("MAb 3D8 (antibody, V domains shown) VH: QVQLQQSGAELVRPGTSVKVSCKASGNAFTNYLIEWIKQRPGQGLEWIGVINPGSGITNYNEKFKGKATLTADKSSNTAYMQLSSLSSDDSAVYFCSGSANWFAYWGQGTLVTVSA VL: DVVMTQTPLSLPVSLGDQASISCRSSQSLVYSNGNTYLHWFLQKPGQSPKLLIYKVSNRFSGVPDRFSGSGSGTDFTLKISRVEAEDLGVYFCSQTTHIPLTFGAGTKLELK")
34
>>> value_reported("MAb 4H7 (antibody, V domains shown) VH: EVQLLQSGPELVKPGTSVKMSCRTSGYTFTEYTMHWVKQSHEKRLEWIGGIDPSNGDTSYNQKFKGKATLTVDKSSSSAYMDLRSLTSVDSAIYYCARLEGVLPLDYWGHGTTLTVSS VL: DVVMTQTPLSLPVSLGDQASISCRSSQSLVYSNGNTYLHWFLQKPGQSPKLLIYKVSNRFSGVPDRFSGSGSGTDFTLKISRVEAEDLGVYFCSQTTHIPLTFGAGTKLELK")
34.4
>>> value_reported("MAb 3H11 (antibody, V domains shown, also called 3H11.47) VH: SLDLTGEPGASVKMSCRTSGYTFTEYTMHWVKQSHEKSLEWIGGIDPDNGDTSFNQKFKGKATLTVDKSSSTAYMELRSLTYDDTAIYLCARLEGVLPLDYWGQGTTLTVSS VL: DIVMTQSQKFMSTSVRDRVAVTCKASQNVGTNVAWYQQKPGQSPKALIYSASYRYSGVPDRFTGSGSGTDFTLTISNVQSEDLAEYFCQQYNSYPYTFGGGTKLEVK")
0.5
>>> value_reported("MAb 1B8 (antibody, V domains shown) VH: EVQLQESGPELVKPGTSVWISCKTSGFTFTKYTMHWVKQSHGKTLEWIGGIDPNNGDTSYNQKFKDKATLTVDKSSSTAYMELRSLTSEDSAVFFCVRLEGSLPLDYWGQGTTLTVSS VL: DVVMTQTPLSLPVSLGDQASISCRSSQSLVHSNGNTYLHWYLQKPGQSPKLLIYKVSSRFSGVPDRFSGSGSGTDFTLKISRVEAEDLGVYFCSQSTHVPYTFGGGTKLEIKR")
0.5
